# STUDY SYSTEM: human CD33 on CD33-expressing THP-1 cells (human, UniProt P20138 18-364)
# Sequence (P20138 18-364): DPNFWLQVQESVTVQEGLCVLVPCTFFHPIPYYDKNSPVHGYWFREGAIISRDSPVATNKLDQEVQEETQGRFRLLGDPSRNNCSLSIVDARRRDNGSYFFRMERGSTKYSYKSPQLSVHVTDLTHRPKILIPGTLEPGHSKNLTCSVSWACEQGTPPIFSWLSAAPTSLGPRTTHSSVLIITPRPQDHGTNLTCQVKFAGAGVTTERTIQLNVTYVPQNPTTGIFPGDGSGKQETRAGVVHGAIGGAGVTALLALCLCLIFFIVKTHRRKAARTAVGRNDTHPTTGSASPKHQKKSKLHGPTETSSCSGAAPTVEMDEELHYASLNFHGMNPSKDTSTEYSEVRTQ
# TEST METHOD NOTES: cell-based or functional assay

BINDER	Cytotox EC50 (nM) Donor 156
scFv-VHH bispecific molecule JL5 x 6H4 (scFv (VL-L-VH)-L-VHH with C-tag) (bispecific antibody) QSVLTQPPSASGTPGQRVTISCSGSSSNIGSNIVNWYQQFPGTAPKLLIYSNNQRPSGVPDRVSGSKSGTSASLAISGLQSEDEADYYCAAWDDSLNGPVFGPGTKVTVLGGSEGKSSGSGSESKSTGGSQVQLQESGPGLVKPSETLSLTCSVSGASIRNYYWSWIRQTAGKGLEWLGHIYSTGNIHYNPSLKSRVTMSVDTSNNQFSLKLRSVTAADTAVYYCARDNGAALFDYWGQGTLVTVSSGGGGSEVQLVESGGGLVQAGGSLRLSCAASGRPFSNYGMGWFRQAPGKKREFVAGISWSGGSTDYADSVKGRFTISRDNAKNTVYLQMNSLKPEDTAVYYCAAVFSGAETAYYPSDDYDYWGQGTQVTVSSAAAEPEA	~0.0019 nM
scFv-VHH bispecific molecule JL2 x 5D3 (scFv (VL-L-VH)-L-VHH with C-tag) (bispecific antibody) DIVMTQSPLSLPVTPGEPASISCRSSQSLLHSDGYNYLDWYLQKSGQSPQLLIYLGSYRASGVPDRFSGSGSGTDFTLKISRVEAEDVGIYYCMQVLQTPWTFGQGTKVEIKGGSEGKSSGSGSESKSTGGSEVQLVESGGGLVQPGGSLRLSCVVSGFTFSSYWMTWVRQAPGKGLEWVANIKQDGSERYYVDSVKGRFTISRDSAKNSLYLQMNSLRAEDTAVYYCAREVGYNWNQGGYFDYWGQGTLVTVSSGGGGSEVQLVESGGGLVQAGGSLRLSCAASGRPFSNYAMGWFRQAPGKEREFVTVISWSGGSTYYADSVKGRFTISRDNAKNTVYLQMNSLKPEDTAVYYCAAQFSGASTVVAGTALDYDYWGQGTRVTVSSAAAEPEA	~0.0019 nM
scFv-VHH bispecific molecule JL4 x 5D3 (scFv (VL-L-VH)-L-VHH with C-tag) (bispecific antibody) DVVMTQSPLSLPVTLGQPASISCRSSQSLVYSDGNTYLNWFQQRPGQSPRRLIYKVSTRDSGVPDRFSGSGSGTDFTLKISRVEAEDVAVYYCLQGTHWPWTFGQGTKVEIKGGSEGKSSGSGSESKSTGGSQVQLVESGGGLVQPGGSLRLSCAASGITFSNYWMSWVRQAPGKGLEWVASIKRDGSDKYYVDSVKGRFTISRDNAKNSLSLQMHSLRAEDTAVYYCAKGEFDYWGQGTLVTVSSGGGGSEVQLVESGGGLVQAGGSLRLSCAASGRPFSNYAMGWFRQAPGKEREFVTVISWSGGSTYYADSVKGRFTISRDNAKNTVYLQMNSLKPEDTAVYYCAAQFSGASTVVAGTALDYDYWGQGTRVTVSSAAAEPEA	0.023 nM
scFv-VHH bispecific molecule JL1 x 5D3 (scFv (VL-L-VH)-L-VHH with C-tag) (bispecific antibody) DIVMTQSPLSLPVTPGEPASISCKSSQSLLFSNGYKFLDWYLQRPGQSPQLLIYLGSYRASGVPDRFSGSGSGTDFTLKISRVEAEDVGLYYCMQALQTPPTFGGGTKVEIKGGSEGKSSGSGSESKSTGGSEVQLVESGGGLVQPGGSLKVSCEASGFTFSVSAIHWVRQASGKGLEWIGRIRSKGNSYATAYAASVKGRFTISRDDSKNTAYLQMDSLKTEDTAVYYCTRHNDKWNYYGLDVWGQGTTVTVSSGGGGSEVQLVESGGGLVQAGGSLRLSCAASGRPFSNYAMGWFRQAPGKEREFVTVISWSGGSTYYADSVKGRFTISRDNAKNTVYLQMNSLKPEDTAVYYCAAQFSGASTVVAGTALDYDYWGQGTRVTVSSAAAEPEA	~0.43 nM
scFv-VHH bispecific molecule JL3 x 5D3 (scFv (VL-L-VH)-L-VHH with C-tag) (bispecific antibody) QSVLTQPPSASGTPGQRVTISCSGSSSNIGSNIVNWYQQFPGTAPKLLLYSDNQRPSGVPDRFSGSKSGTSASLAISGLQSEDEADYYCAAWDDSLNGPVFGTGTKVTVLGGSEGKSSGSGSESKSTGGSQVQLQESGPGLVKPSETLSLTCSVSGGSIRNYYWSWIRQSAGKELEWFGHIFSTGHINYDSSLKSRVTMSVDTSNNQFSLKLRSVTAADTAVYYCARDNGAALFDFWGQGTLVTVSSGGGGSEVQLVESGGGLVQAGGSLRLSCAASGRPFSNYAMGWFRQAPGKEREFVTVISWSGGSTYYADSVKGRFTISRDNAKNTVYLQMNSLKPEDTAVYYCAAQFSGASTVVAGTALDYDYWGQGTRVTVSSAAAEPEA	~0.0008 nM
scFv-VHH bispecific molecule JL1 x 6H4 (scFv (VL-L-VH)-L-VHH with C-tag) (bispecific antibody) DIVMTQSPLSLPVTPGEPASISCKSSQSLLFSNGYKFLDWYLQRPGQSPQLLIYLGSYRASGVPDRFSGSGSGTDFTLKISRVEAEDVGLYYCMQALQTPPTFGGGTKVEIKGGSEGKSSGSGSESKSTGGSEVQLVESGGGLVQPGGSLKVSCEASGFTFSVSAIHWVRQASGKGLEWIGRIRSKGNSYATAYAASVKGRFTISRDDSKNTAYLQMDSLKTEDTAVYYCTRHNDKWNYYGLDVWGQGTTVTVSSGGGGSEVQLVESGGGLVQAGGSLRLSCAASGRPFSNYGMGWFRQAPGKKREFVAGISWSGGSTDYADSVKGRFTISRDNAKNTVYLQMNSLKPEDTAVYYCAAVFSGAETAYYPSDDYDYWGQGTQVTVSSAAAEPEA	0.0098 nM
scFv-VHH bispecific molecule JL5 x 5D3 (scFv (VL-L-VH)-L-VHH with C-tag) (bispecific antibody) QSVLTQPPSASGTPGQRVTISCSGSSSNIGSNIVNWYQQFPGTAPKLLIYSNNQRPSGVPDRVSGSKSGTSASLAISGLQSEDEADYYCAAWDDSLNGPVFGPGTKVTVLGGSEGKSSGSGSESKSTGGSQVQLQESGPGLVKPSETLSLTCSVSGASIRNYYWSWIRQTAGKGLEWLGHIYSTGNIHYNPSLKSRVTMSVDTSNNQFSLKLRSVTAADTAVYYCARDNGAALFDYWGQGTLVTVSSGGGGSEVQLVESGGGLVQAGGSLRLSCAASGRPFSNYAMGWFRQAPGKEREFVTVISWSGGSTYYADSVKGRFTISRDNAKNTVYLQMNSLKPEDTAVYYCAAQFSGASTVVAGTALDYDYWGQGTRVTVSSAAAEPEA	~0.0007 nM
scFv-VHH bispecific molecule JL3 x 6H4 (scFv (VL-L-VH)-L-VHH with C-tag) (bispecific antibody) QSVLTQPPSASGTPGQRVTISCSGSSSNIGSNIVNWYQQFPGTAPKLLLYSDNQRPSGVPDRFSGSKSGTSASLAISGLQSEDEADYYCAAWDDSLNGPVFGTGTKVTVLGGSEGKSSGSGSESKSTGGSQVQLQESGPGLVKPSETLSLTCSVSGGSIRNYYWSWIRQSAGKELEWFGHIFSTGHINYDSSLKSRVTMSVDTSNNQFSLKLRSVTAADTAVYYCARDNGAALFDFWGQGTLVTVSSGGGGSEVQLVESGGGLVQAGGSLRLSCAASGRPFSNYGMGWFRQAPGKKREFVAGISWSGGSTDYADSVKGRFTISRDNAKNTVYLQMNSLKPEDTAVYYCAAVFSGAETAYYPSDDYDYWGQGTQVTVSSAAAEPEA	~0.00099 nM
